Each entry below carries its recorded Activity.
Biological target: D(2) dopamine receptor (Homo sapiens)
Sequence (P14416 whole entry): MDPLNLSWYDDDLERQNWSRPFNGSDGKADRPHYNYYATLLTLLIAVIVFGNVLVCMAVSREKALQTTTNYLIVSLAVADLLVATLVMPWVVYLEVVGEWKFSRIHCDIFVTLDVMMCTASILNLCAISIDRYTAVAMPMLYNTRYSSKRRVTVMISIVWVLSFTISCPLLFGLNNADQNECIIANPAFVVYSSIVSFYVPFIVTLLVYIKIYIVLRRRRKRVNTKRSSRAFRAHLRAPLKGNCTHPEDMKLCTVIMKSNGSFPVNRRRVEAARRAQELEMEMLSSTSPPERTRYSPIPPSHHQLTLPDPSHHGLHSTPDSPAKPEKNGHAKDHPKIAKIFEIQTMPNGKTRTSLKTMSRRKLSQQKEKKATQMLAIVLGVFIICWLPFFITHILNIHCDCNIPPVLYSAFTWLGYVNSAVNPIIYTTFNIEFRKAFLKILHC
Experiment: Agonist activity at human D2L receptor expressed in HEK293 cells assessed as stimulation of cAMP levels at 0.1 uM relative to dopamine
Assay type: functional, cell-based
Your answer is read as %, so omit the unit and give the number.

For orientation, consider the following solved cases.
| test.smiles | result.units | Activity |
| --- | --- | --- |
| Cn1c(=O)c2c(nc3n(CCCCCN4CCN(c5ccccc5O)CC4)c(-c4ccccc4)cn23)n(C)c1=O | % | 12.3 |
| Cn1c(=O)c2c(nc3n(CCCCN4CCN(c5ccccc5O)CC4)c(-c4ccccc4)cn23)n(C)c1=O | % | 19.2 |
| Cc1cn2c3c(=O)n(C)c(=O)n(C)c3nc2n1CCCCCN1CCN(c2ccc(Cl)c(Cl)c2)CC1 | % | 0.8 |

Provide Activity value for the following compound: `Cn1c(=O)c2c(nc3n(CCCCCN4CCN(c5ccc(Cl)cc5)CC4)c(-c4ccccc4)cn23)n(C)c1=O` 3.1

Using known records, supply Activity for `Cc1cccc(N2CCN(CCCCn3c(C)cn4c5c(=O)n(C)c(=O)n(C)c5nc34)CC2)c1C` 35.3
